# Format: in vitro ADME
# MEASUREMENT CONTEXT: extraction ratio, compound at 1 uM, SD rat liver microsomes 0.5 mg/mL
Item-by-item account of Liver Microsomal Stability (ER) SD rat
QUANTITY KIND: Liver Microsomal Stability (ER) SD rat

> print(dat)
                               entry.smiles  reported
1  CC(C)C[C@H](NC(=O)OCc1ccccc1)C(=O)N[C@H](C#N)C[C@@H]1CCNC1=O      0.48
2  CC(C)C(=O)N[C@H](C(=O)N1C[C@H]2[C@@H]([C@H]1C(=O)N[C@@H](C[C@@H]1CCNC1=O)C(N)=O)C2(C)C)C(C)(C)C      0.37
3  CC(C)[C@@H](C#N)NC(=O)[C@@H]1[C@@H]2[C@H](CN1C(=O)[C@@H](NC(=O)C(F)(F)F)C1CC1)C2(C)C      0.20
4  CC(C)C[C@H](NC(=O)c1cc2c(F)cccc2[nH]1)C(=O)N[C@H](C=O)C[C@@H]1CCNC1=O      0.14
5  Cc1cccc2[nH]c(C(=O)N[C@@H](CC(C)C)C(=O)N[C@@H](C[C@@H]3CCNC3=O)C(=O)CO)cc12      0.19
6  CC(C)C[C@H](NC(=O)c1cc2ccccc2[nH]1)C(=O)N[C@H](C=O)C[C@@H]1CCNC1=O      0.05

###

# RUN DESCRIPTION: in vivo
# MEASUREMENT CONTEXT: female, beagle, dog, po, 40 mg/kg

COMPOUND	Cmax
CC(C)C[C@H](NC(=O)c1cc2ccccc2[nH]1)C(=O)N[C@H](C=O)C[C@@H]1CCNC1=O [Compound A-1-c]	13800 ng/mL
CC(C)C[C@H](NC(=O)c1cc2ccccc2[nH]1)C(=O)N[C@@H](C[C@@H]1CCNC1=O)C(O)S(=O)(=O)[O-].[Na+] (some centres unmarked) [Compound A-1-d]	27800 ng/mL

###

# Format: in vitro ADME, Human
# MEASUREMENT CONTEXT: extraction ratio, compound at 1 uM, human liver microsomes 0.5 mg/mL
Item-by-item account of Liver Microsomal Stability (ER) Human
QUANTITY KIND: Liver Microsomal Stability (ER) Human

> print(dat)
                                    compound  reported
 1  CC(C)(C)C(=O)N[C@H](C(=O)N1C[C@H]2[C@@H]([C@H]1C(=O)N[C@H](C#N)C[C@@H]1CCNC1=O)C2(C)C)C(C)(C)C      0.53
 2  CC(C)C[C@H](NC(=O)c1cc2ccccc2[nH]1)C(=O)N[C@@H](C[C@@H]1CCNC1=O)C(=O)O      0.00
 3  CC(C)(C)[C@H](NC(=O)C1CC1)C(=O)N1C[C@H]2[C@@H]([C@H]1C(=O)N[C@H](C#N)C[C@@H]1CCNC1=O)C2(C)C      0.02
 4  CC(C)C[C@H](NC(=O)C1CC1)C(=O)N1C[C@H]2[C@@H]([C@H]1C(=O)N[C@H](C#N)C[C@@H]1CCNC1=O)C2(C)C      0.03
 5  CC(C)C[C@H](NC(=O)[C@@H](NC(=O)C(F)F)[C@@H](C)OC(C)(C)C)C(=O)N[C@H](C#N)C[C@@H]1CCNC1=O      0.35
 6  COc1cccc2[nH]c(C(=O)N[C@@H](CC(C)C)C(=O)N[C@@H](C[C@@H]3CCNC3=O)C(=O)CCl)cc12      0.89
 7  CC(C)[C@H](NC(=O)[C@@H]1[C@@H]2[C@H](CN1C(=O)[C@@H](NC(=O)C(F)(F)F)C(C)(C)C)C2(C)C)C(=O)CCl      0.81
 8  CC(C)C[C@H](NC(=O)C(F)F)C(=O)N1C[C@H]2[C@@H]([C@H]1C(=O)N[C@H](C#N)C[C@@H]1CCNC1=O)C2(C)C      0.09
 9  CC(C)C[C@H](NC(=O)c1cc2ccccc2[nH]1)C(=O)N1C[C@H]2[C@@H]([C@H]1C(=O)N[C@@H](C[C@@H]1CCNC1=O)C(=O)CO)C2(C)C      0.17
10  Cc1cccc2[nH]c(C(=O)N[C@@H](CC(C)C)C(=O)N[C@H](C#N)C[C@@H]3CCNC3=O)cc12      0.02
11  Cc1cccc2[nH]c(C(=O)N[C@@H](CC(C)C)C(=O)N[C@@H](C[C@@H]3CCNC3=O)C(=O)CO)cc12      0.18
12  CC(C)C[C@H](NC(=O)c1cc2ccccc2[nH]1)C(=O)N1C[C@H]2[C@@H]([C@H]1C(=O)N[C@H](C=O)C(C)(C)C)C2(C)C      0.70
13  CC(C)C[C@H](NC(=O)OCc1ccccc1)C(=O)N[C@H](C#N)C[C@@H]1CCNC1=O      0.24
14  CC(C)C[C@H](NC(=O)C(C)(C)C)C(=O)N1C[C@H]2[C@@H]([C@H]1C(=O)N[C@H](C#N)C[C@@H]1CCNC1=O)C2(C)C      0.26
15  C=CC(=O)N[C@H](C[C@@H]1CCNC1=O)NC(=O)[C@@H]1[C@@H]2[C@H](CN1C(=O)[C@@H](NC(=O)C(F)(F)F)C(C)(C)C)C2(C)C     −0.05
16  CC(C)C[C@H](NC(=O)c1cc2ccccc2[nH]1)C(=O)N1C[C@H]2[C@@H]([C@H]1C(=O)N[C@H](C=O)C[C@@H]1CCNC1=O)C2(C)C      0.28
17  CC(C)C[C@H](NC(=O)c1cc2c(F)cccc2[nH]1)C(=O)N[C@@H](C[C@@H]1CCNC1=O)C(=O)CCl      0.84
18  CC(C)C[C@H](NC(=O)C(C)C)C(=O)N1C[C@H]2[C@@H]([C@H]1C(=O)N[C@H](C#N)C[C@@H]1CCNC1=O)C2(C)C      0.05
19  CC(C)C[C@H](NC(=O)c1cc2ccccc2[nH]1)C(=O)N1C[C@H]2[C@@H]([C@H]1C(=O)N[C@H](C(=O)CCl)C(C)C)C2(C)C      0.85
20  CC(C)C[C@H](NC(=O)c1cc2ccccc2[nH]1)C(=O)N1C[C@H]2[C@@H]([C@H]1C(=O)N[C@H](C#N)C(C)(C)C)C2(C)C      0.28
21  CC(C)C[C@H](NC(=O)c1cc2ccccc2[nH]1)C(=O)N[C@@H](C[C@@H]1CCNC1=O)C(O)S(=O)(=O)[O-].[Na+] (stereo partly drawn)      0.08
22  COc1cccc2[nH]c(C(=O)N[C@@H](CC(C)C)C(=O)N[C@H](C#N)C[C@@H]3CCNC3=O)cc12      0.08
23  C=CC(=O)N[C@H](C[C@@H]1CCNC1=O)NC(=O)[C@H](CC(C)C)NC(=O)OCc1ccccc1     −0.19

###

# RUN DESCRIPTION: in vivo
# MEASUREMENT CONTEXT: female, beagle, dog, po, 40 mg/kg
Item-by-item account of half-life
QUANTITY KIND: half-life (h)

> print(dat)
                                   compound  scale.unit  reported
1  CC(C)C[C@H](NC(=O)c1cc2ccccc2[nH]1)C(=O)N[C@H](C=O)C[C@@H]1CCNC1=O           h      4.84
2  CC(C)C[C@H](NC(=O)c1cc2ccccc2[nH]1)C(=O)N[C@@H](C[C@@H]1CCNC1=O)C(O)S(=O)(=O)[O-].[Na+] (some centres unmarked)           h      2.73

###

Item-by-item account of Liver Microsomal Stability (ER) Human
# Assay type: in vitro ADME, Human
# MEASUREMENT CONTEXT: extraction ratio, compound at 1 uM, human liver microsomes 0.5 mg/mL
QUANTITY KIND: Liver Microsomal Stability (ER) Human

COMPOUND	REPORTED
CC(C)C[C@H](NC(=O)c1cc2ccccc2[nH]1)C(=O)N1C[C@H]2[C@@H]([C@H]1C(=O)N[C@H](C#N)C[C@@H]1CCNC1=O)C2(C)C [Compound G-1-b]	0.38
CC(C)C[C@H](NC(=O)c1cc2ccccc2[nH]1)C(=O)N1C[C@H]2[C@@H]([C@H]1C(=O)N[C@H](C=O)C(C)C)C2(C)C [Compound G-2-a]	0.54
CC1(C)[C@@H]2[C@@H](C(=O)N[C@H](C#N)C[C@@H]3CCNC3=O)N(C(=O)[C@@H](NC(=O)C(F)(F)F)C3CC3)C[C@@H]21 [Compound D-2-a]	0.05
COc1cccc2[nH]c(C(=O)N[C@@H](CC(C)C)C(=O)N[C@@H](C[C@@H]3CCNC3=O)C(=O)CO)cc12 [Compound A-5-d]	0.09
CC(C)C[C@H](NC(=O)c1cc2ccccc2[nH]1)C(=O)N1C[C@H]2[C@@H]([C@H]1C(=O)N[C@@H](C#N)C[C@@H]1CCNC1=O)C2(C)C [Compound G-1-c]	0.67
C[C@@H](C=O)NC(=O)[C@@H]1[C@@H]2[C@H](CN1C(=O)[C@@H](NC(=O)C(F)(F)F)C1CC1)C2(C)C [Compound F-3-c]	−0.35
CC(C)C[C@H](NC(=O)C(F)(F)F)C(=O)N1C[C@H]2[C@@H]([C@H]1C(=O)N[C@H](C#N)C[C@@H]1CCNC1=O)C2(C)C [Compound H-1-c]	0.15
CC(C)C[C@H](CC(=O)[C@@H](NC(=O)OCc1ccccc1)[C@@H](C)OC(C)(C)C)C(=O)N[C@H](C=O)C[C@@H]1CCNC1=O [Compound C-1-b]	0.66
CC(C)C[C@@H](NC(=O)c1cc2c(F)cccc2[nH]1)C(=O)N[C@H](C#N)C[C@@H]1CCNC1=O [Compound A-3-b]	0.18
C[C@H](NC(=O)[C@@H]1[C@@H]2[C@H](CN1C(=O)[C@@H](NC(=O)C(F)(F)F)C(C)(C)C)C2(C)C)C(=O)CCl [Compound F-1-b]	0.48
CC(C)C[C@H](NC(=O)c1cc2c(F)cccc2[nH]1)C(=O)N[C@@H](C[C@@H]1CCNC1=O)C(=O)CO [Compound A-3-e]	0.11
C=CC(=O)N[C@H](C[C@@H]1CCNC1=O)NC(=O)[C@H](CC1CCCCC1)NC(=O)OCc1ccccc1 [Compound B-2-e]	0.73
CC(C)(C)[C@H](NC(=O)C(F)(F)F)C(=O)N1C[C@H]2[C@@H]([C@H]1C(=O)N[C@H](C#N)C[C@@H]1CCCNC1=O)C2(C)C [Compound D-3-a]	0.38
COc1cccc2[nH]c(C(=O)N[C@@H](CC(C)C)C(=O)N[C@H](C=O)C[C@@H]3CCNC3=O)cc12 [Compound A-5-a]	0.10
C[C@@H](OC(C)(C)C)[C@H](NC(=O)OCc1ccccc1)C(=O)N[C@@H](CC1CCCCC1)C(=O)N[C@H](C=O)C[C@@H]1CCNC1=O [Compound C-2-b]	0.66
CC(C)C[C@H](NC(=O)c1cc2ccccc2[nH]1)C(=O)N[C@@H](C[C@@H]1CCNC1=O)C(=O)CO [Compound A-1-h]	0.07
CC(C)(C)[C@H](NC(=O)C(F)(F)F)C(=O)N[C@@H](CC1CCCCC1)C(=O)N[C@H](C#N)C[C@@H]1CCNC1=O [Compound D-4-a]	0.46
CC(C)C[C@H](NC(=O)c1cc2ccccc2[nH]1)C(=O)N[C@@H](C[C@@H]1CCNC1=O)C(=O)CCl [Compound A-1-g]	0.80
CC(C)(C)[C@H](NC(=O)C(F)(F)F)C(=O)N1C[C@H]2[C@@H]([C@H]1C(=O)N[C@@H](C[C@@H]1CCNC1=O)C(=O)CO)C2(C)C [Compound D-1-c]	0.04
CC(C)C[C@H](NC(=O)c1cc2ccccc2[nH]1)C(=O)N1C[C@H]2[C@@H]([C@H]1C(=O)N[C@@H](C[C@@H]1CCNC1=O)C(=O)CCl)C2(C)C [Compound G-1-d]	0.83
Cc1cccc2[nH]c(C(=O)N[C@@H](CC(C)C)C(=O)N[C@@H](C[C@@H]3CCNC3=O)C(=O)CCl)cc12 [Compound A-4-c]	0.67
CC(C)C(=O)N[C@H](C(=O)N1C[C@H]2[C@@H]([C@H]1C(=O)N[C@H](C#N)C[C@@H]1CCNC1=O)C2(C)C)C1CC1 [Compound D-2-b]	0.08
CC1(C)[C@@H]2[C@@H](C(=O)N[C@H](C#N)C[C@@H]3CCNC3=O)N(C(=O)[C@@H](NC(=O)C(F)F)C3CC3)C[C@@H]21 [Compound D-2-d]	0.03
CC(C)C[C@H](NC(=O)C(F)F)C(=O)N1C[C@H]2[C@@H]([C@H]1C(=O)N[C@H](C=O)C[C@@H]1CCNC1=O)C2(C)C [Compound H-1-a]	0.08
